Data credit: PubChem BioAssay (EPA / NIEHS)

method-notes: ATG_BRE_CIS: Attagene CIS-FACTORIAL HepG2 Assay for human Bone Morphogenetic Protein (BMP) Response Element (BRE) (AID 2282933)
measurement-setup: HepG2 BMP response element reporter, Attagene transcription factor profiling; actives raise or lower the signal
Active and inactive are the calls of the source. Rule for the calls: active = hit-call score of the fitted dose curve at least 0.9, where 1 is the maximum; inactive = score below 0.9.
Labels: active, inactive

- molecule: "CC(=O)c1cc(C(C)(C)C)cc2c1CCC2(C)C"
  assigned-label: "inactive"
- molecule: "CC1CN1P(=O)(N1CC1C)N1CC1C (stereo unspecified)"
  assigned-label: "inactive"
- molecule: "CC1(C)CCC(Cc2ccc(Cl)cc2)C1(O)Cn1cncn1 (stereo unspecified)"
  assigned-label: "active"
- molecule: "CC(C)c1ccc(CO)cc1"
  assigned-label: "inactive"
- molecule: "COc1cc(OC)nc(NC(=O)NS(=O)(=O)c2ncccc2C(=O)N(C)C)n1"
  assigned-label: "inactive"
- molecule: "Nc1ccc(Cl)cc1C(=O)c1ccccc1"
  assigned-label: "inactive"
- molecule: "CC(C#N)CCC#N (stereo unspecified)"
  assigned-label: "inactive"
- molecule: "CCC(=O)c1ccccc1"
  assigned-label: "inactive"
- molecule: "COc1ccc(C=O)cc1"
  assigned-label: "inactive"
- molecule: "CCC(C)(C)c1ccc(O)c(C(C)(C)CC)c1"
  assigned-label: "inactive"
- molecule: "CC(C)(c1ccccc1)c1ccc(O)c(C(C)(C)c2ccccc2)c1"
  assigned-label: "inactive"
- molecule: "CCOP(=S)(OCC)SCSP(=S)(OCC)OCC"
  assigned-label: "inactive"
- molecule: "N#Cc1ccccn1"
  assigned-label: "inactive"
- molecule: "CC1(C)Cc2cccc(O)c2O1"
  assigned-label: "inactive"
- molecule: "ClC1(Cl)C2(Cl)C3(Cl)C4(Cl)C(Cl)(Cl)C5(Cl)C3(Cl)C1(Cl)C5(Cl)C24Cl (stereo unspecified)"
  assigned-label: "inactive"
- molecule: "CCOC(=O)CP(=O)(OCC)OCC"
  assigned-label: "inactive"
- molecule: "C[C@@H](Oc1ccc(Cl)cc1Cl)C(=O)O"
  assigned-label: "inactive"
- molecule: "COc1cccc(C=O)c1"
  assigned-label: "inactive"
- molecule: "COP(=S)(OC)Oc1ccc(Sc2ccc(OP(=S)(OC)OC)cc2)cc1"
  assigned-label: "active"
- molecule: "C(=NC1CCCCC1)=NC1CCCCC1"
  assigned-label: "active"
- molecule: "N#CCCO"
  assigned-label: "inactive"
- molecule: "CCCCCCCCc1ccc(O)cc1"
  assigned-label: "inactive"
- molecule: "Oc1ccc(-c2ccccc2)cc1"
  assigned-label: "inactive"
- molecule: "CC(C)(C)CC(C)(C)c1ccc(O)cc1"
  assigned-label: "inactive"
- molecule: "NC(=S)Nc1ccccc1"
  assigned-label: "inactive"
- molecule: "C=CC#N"
  assigned-label: "inactive"
- molecule: "Cc1ccccc1N"
  assigned-label: "inactive"
- molecule: "O=[N+]([O-])c1c(Cl)c(Cl)cc(Cl)c1Cl"
  assigned-label: "inactive"
- molecule: "CN(CCCC(=O)c1cccnc1)N=O"
  assigned-label: "inactive"
- molecule: "Oc1c(I)cc(I)cc1I"
  assigned-label: "active"
- molecule: "C=CCc1ccc(OC)cc1"
  assigned-label: "inactive"

* * *

Read-out: Interferon-gamma inducible Protein 10 (IP10), CXCL10 (gene 3627)
method-notes: BSK_hDFCGF_IP10: BioMAP Diversity Plus: hDFCGF Assay for Interferon-gamma inducible Protein 10 (IP10) Biomarker Activity (AID 2283053)
measurement-setup: primary human foreskin fibroblasts; actives raise or lower the signal
Calls of active or inactive are those of the source. How the source made its calls: active means hit-call score of the fitted dose curve at least 0.9, where 1 is the maximum; inactive means score below 0.9.
Classes used: true = active, false = inactive

- entry-smiles: "CCOP(=S)(OCC)SCSP(=S)(OCC)OCC"
  assigned-label: "true"
- entry-smiles: "C=C(C)C(=O)[O][Sn]([CH2]CCC)([CH2]CCC)[CH2]CCC"
  assigned-label: "true"
- entry-smiles: "COC[C@H](C)N(C(=O)CCl)c1c(C)csc1C"
  assigned-label: "false"
- entry-smiles: "O=[N+]([O-])c1ccc(O)c([N+](=O)[O-])c1"
  assigned-label: "false"
- entry-smiles: "O=c1[nH]c(=O)[nH]c(=O)[nH]1"
  assigned-label: "false"
- entry-smiles: "BrCCBr"
  assigned-label: "false"
- entry-smiles: "COC(=O)Cc1ccccc1"
  assigned-label: "false"
- entry-smiles: "OCc1ccco1"
  assigned-label: "false"
- entry-smiles: "C[C@]12CCC(=O)C[C@@H]1CC[C@@H]1[C@@H]2CC[C@]2(C)[C@@H](O)CC[C@@H]12"
  assigned-label: "false"
- entry-smiles: "CC(=O)[O][Hg][c]1ccccc1"
  assigned-label: "true"
- entry-smiles: "Cn1sc(Cl)cc1=O"
  assigned-label: "true"
- entry-smiles: "CCCCCCCCc1ccc(O)cc1"
  assigned-label: "true"
- entry-smiles: "CCNc1nc(NC(C)(C)C)nc(SC)n1"
  assigned-label: "false"
- entry-smiles: "O=C(Nc1ccc2[nH]ccc2c1)c1cc2cc(F)ccc2n1Cc1cccc(F)c1"
  assigned-label: "true"

* * *

Read-out: CD38, CD38 (gene 952)
method-notes: BSK_SAg_CD38: BioMAP Diversity Plus: SAg Assay for CD38 Biomarker Activity (AID 2283087)
measurement-setup: primary human HUVEC with PBMC; actives raise or lower the signal
Active and inactive are the calls of the source. Rule for the calls: active = hit-call score of the fitted dose curve at least 0.9, where 1 is the maximum; inactive = score below 0.9.
Labels: active, inactive

- compound: "CCOC(=O)/C=C(C)/C=C/C[C@@H](C)CCCC(C)C"
  assigned-label: "active"
- compound: "CC(C)CCCCCCOC(=O)c1ccccc1C(=O)OCCCCCCC(C)C"
  assigned-label: "inactive"
- compound: "CCC(=O)C(CC(C)N(C)C)(c1ccccc1)c1ccccc1 (stereo not given)"
  assigned-label: "inactive"
- compound: "C(=NC1CCCCC1)=NC1CCCCC1"
  assigned-label: "active"
- compound: "O=C1C2(Cl)C3(Cl)C4(Cl)C(Cl)(Cl)C5(Cl)C3(Cl)C1(Cl)C5(Cl)C24Cl (stereo not given)"
  assigned-label: "active"

* * *

experimental-target: human Serotonin, 5-Hydroxytryptamine Receptor 7 (5HT7), HTR7 (gene 3363)
method-notes: NVS_GPCR_h5HT7: NovaScreen (NVS) G Protein-Coupled Receptor Assay for human Serotonin, 5-Hydroxytryptamine Receptor 7 (5HT7) (AID 2283255);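 note: hits reduce specific radioligand binding relative to DMSO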
Records with an inconclusive call do not appear. Activity calls are given as the source filed them. The calls were made as follows: active = hit-call score of the fitted dose curve at least 0.9, where 1 is the maximum; inconclusive = response in the unintended direction; inactive = score below 0.9.
endpoint-label: AC50

- molecule: "CC(C)(C)CC(C)(C)c1ccc(O)cc1"
  endpoint-value: "34.1 µM (active)"
- molecule: "CCN1CCC2(CC1)COc1cc3c(cc12)N(C(=O)c1ccc(-c2ccc(-c4nnc(C)o4)cc2C)cc1)CC3"
  endpoint-value: "23.4 µM (active)"
- molecule: "C=C(C)C(=O)[O][Sn]([CH2]CCC)([CH2]CCC)[CH2]CCC"
  endpoint-value: "0.499 µM (active)"
- molecule: "CCC(=O)C(CC(C)N(C)C)(c1ccccc1)c1ccccc1 (stereo unspecified)"
  endpoint-value: "3.59 µM (active)"
- molecule: "CC(=O)[O][Hg][c]1ccccc1"
  endpoint-value: "0.577 µM (active)"
- molecule: "O=C(O)C(F)(F)C(F)(F)C(F)(F)C(F)(F)C(F)(F)C(F)(F)C(F)(F)C(F)(F)C(F)(F)C(F)(F)F"
  endpoint-value: "12.9 µM (active)"

* * *

method-notes: ATG_TCF_b_cat_CIS: Attagene CIS-FACTORIAL HepG2 Assay for human T-Cell-Factor with beta-catenin (TCF/b-cat) (AID 2282965)
measurement-setup: HepG2 TCF/beta-catenin cis-reporter transcription, actives raise or lower the signal
Active and inactive are the calls of the source. The calls were made as follows: active = hit-call score of the fitted dose curve at least 0.9, where 1 is the maximum; inactive = score below 0.9.
Outcome codes: active, inactive

- compound: "C(=NC1CCCCC1)=NC1CCCCC1"
  assigned-label: "inactive"
- compound: "COc1cccc(C=O)c1"
  assigned-label: "inactive"
- compound: "CC(C)CCCCCCOC(=O)c1ccccc1C(=O)OCCCCCCC(C)C"
  assigned-label: "inactive"
- compound: "CC(C)(c1ccc(OCC2CO2)cc1)c1ccc(OCC2CO2)cc1 (configuration not stated)"
  assigned-label: "active"
- compound: "Oc1ccc(-c2ccccc2)cc1"
  assigned-label: "inactive"
- compound: "O=P(O)(O)CN(CP(=O)(O)O)CP(=O)(O)O"
  assigned-label: "inactive"
- compound: "CCSC(C)CC1CC(=O)C(C(CC)=NOC/C=C/Cl)=C(O)C1 (configuration not stated)"
  assigned-label: "inactive"

* * *

Read-out: Interleukin-6 (IL6), IL6 (gene 3569)
method-notes: BSK_CASM3C_IL6: BioMAP Diversity Plus: CASM3C Assay for Interleukin-6 (IL6) Biomarker Activity for (AID 2283040)
measurement-setup: primary human coronary artery smooth muscle cells; actives raise or lower the signal
Calls of active or inactive are those of the source. Rule for the calls: active = hit-call score of the fitted dose curve at least 0.9, where 1 is the maximum; inactive = score below 0.9.
Possible outcomes: active, inactive

- molecule: "CC(=O)OC(c1ccccc1)C(Cl)(Cl)Cl (stereo not drawn)"
  assigned-label: "inactive"
- molecule: "Nc1ccc(-c2ccc(N)c(Cl)c2)cc1Cl"
  assigned-label: "inactive"
- molecule: "COC[C@H](C)N(C(=O)CCl)c1c(C)csc1C"
  assigned-label: "inactive"
- molecule: "OCc1ccco1"
  assigned-label: "inactive"
- molecule: "CC(C)(C)c1cc(O)ccc1O"
  assigned-label: "inactive"
- molecule: "Oc1c(I)cc(I)cc1I"
  assigned-label: "inactive"
- molecule: "O=C(O)CCC(F)(C(F)(F)F)C(F)(F)F"
  assigned-label: "inactive"
- molecule: "CCCCCCCCc1ccc(O)cc1"
  assigned-label: "active"
- molecule: "C(=NC1CCCCC1)=NC1CCCCC1"
  assigned-label: "active"
- molecule: "ClC1(Cl)C2(Cl)C3(Cl)C4(Cl)C(Cl)(Cl)C5(Cl)C3(Cl)C1(Cl)C5(Cl)C24Cl (stereo not drawn)"
  assigned-label: "inactive"
- molecule: "CCOP(=S)(OCC)SCSP(=S)(OCC)OCC"
  assigned-label: "inactive"
- molecule: "CC(=O)[O][Hg][c]1ccccc1"
  assigned-label: "active"
- molecule: "C[C@]12CCC(=O)C[C@@H]1CC[C@@H]1[C@@H]2CC[C@]2(C)[C@@H](O)CC[C@@H]12"
  assigned-label: "inactive"
